Collected Ki for C-C chemokine receptor type 5 (Homo sapiens, UniProt P51681) across several studies; molecules listed below.
Quantity kind: Ki (nM)

query_smiles=CO/N=C(/c1ccc(Br)cc1)C1CCN(C2(C)CCN(C(=O)c3c(C)ncnc3C)CC2)CC1 lt_gt_eq== readout_number=4.7
query_smiles=CNC(=O)CO/N=C(/c1ccc(Br)cc1)C1CCN(C2(C)CCN(C(=O)c3c(C)cccc3C)CC2)CC1 lt_gt_eq== readout_number=33
query_smiles=CCO/N=C(/c1ccc(Br)cc1)C1CCN(C2(C)CCN(C(=O)c3cccnc3)CC2)CC1 lt_gt_eq=> readout_number=30
query_smiles=Cc1cccc(C)c1C(=O)N1CCC(C)(N2CCC(Cc3ccc(I)cc3)CC2)CC1 lt_gt_eq== readout_number=33
query_smiles=Cc1cncc(C)c1C(=O)N1CCC(C)(N2CCN([C@@H](C)c3ccc(C(F)(F)F)cc3)[C@@H](C)C2)CC1 lt_gt_eq== readout_number=5.23
query_smiles=CCO/N=C(/c1ccc(Br)cc1)C1CCN(C2(C)CCN(C(=O)c3c(C)nc(NS(C)(=O)=O)nc3C)CC2)CC1 lt_gt_eq== readout_number=315
query_smiles=CCCO/N=C(/c1ccc(Br)cc1)C1CCN(C2(C)CCN(C(=O)c3c(C)ncnc3C)CC2)CC1 lt_gt_eq== readout_number=2
query_smiles=CCO/N=C(/c1ccc(C(F)(F)F)cc1)C1CCN(C2(C)CCN(C(=O)c3c(C)cc[n+]([O-])c3C)CC2)CC1 lt_gt_eq== readout_number=3.8
query_smiles=CCO/N=C(/c1ccc(Br)cc1)C1CCN(C2(C)CCN(C(=O)c3c(Cl)c[n+]([O-])cc3Cl)CC2)CC1 lt_gt_eq== readout_number=1.2
query_smiles=CCO/N=C(/c1ccc(Br)cc1)C1CCN(C2(C)CCN(C(=O)c3c(C)cc[nH]c3=O)CC2)CC1 lt_gt_eq=> readout_number=30
query_smiles=CCO/N=C(/c1ccc(Br)cc1)C1CCN(C2(C)CCN(C(=O)c3c(F)cccc3C(F)(F)F)CC2)CC1 lt_gt_eq== readout_number=3
query_smiles=CCO/N=C(/c1ccc(Br)cc1)C1CCN(C2(C)CCN(C(=O)c3c(C)cc(C)nc3O)CC2)CC1 lt_gt_eq== readout_number=43
query_smiles=Cc1ncnc(C)c1C(=O)N1CCC(C)(N2CCC(/C(=N\OCC(C)C)c3ccc(Br)cc3)CC2)CC1 lt_gt_eq== readout_number=8.1
query_smiles=CCO/N=C(/c1ccc(Br)cc1)C1CCN(C2(C)CCN(C(=O)c3cccnc3C)CC2)CC1 lt_gt_eq== readout_number=26
query_smiles=CCO/N=C(/c1ccc(Br)cc1)C1CCN(C2(C)CCN(C(=O)c3c(C)ccnc3C)CC2)CC1 lt_gt_eq== readout_number=1.1
query_smiles=CO/N=C(/c1ccc(Br)cc1)C1CCN(C2(C)CCN(C(=O)c3c(C)cc[n+]([O-])c3C)CC2)CC1 lt_gt_eq== readout_number=19
query_smiles=CO/N=C(/c1ccc(Br)cc1)C1CCN(C2(C)CCN(C(=O)c3c(C)cccc3C)CC2)CC1 lt_gt_eq== readout_number=2
